- Test system: HUVEC
- METHOD_DESCRIPTION: Antiproliferative activity against LSGS stimulated HUVEC
- Assay type: functional, cell-based
- EXPERIMENTAL_CONDITIONS: Homo sapiens
Define the label as YES when IC50 is strictly less than 30 nM and as NO in all remaining cases.

Exam item: Below 30 nM on IC50? Entry COc1cccc2c1Cc1c-2n[nH]c1Nc1ccccc1
Marked response: NO

Exam item: Below 30 nM on IC50? Entry COc1cc2c(cc1OC)-c1[nH]nc(-c3ccccc3)c1C2
Marked response: NO

Exam item: Below 30 nM on IC50? Entry COc1cc2c(cc1OC)-c1n[nH]c(Nc3cccc(F)c3)c1C2
Marked response: NO

Exam item: Below 30 nM on IC50? Entry COc1cccc(Nc2[nH]nc3c2Cc2cc(OC)c(OC)cc2-3)c1
Marked response: YES

Exam item: Below 30 nM on IC50? Entry COc1cc2c(cc1OC)-c1n[nH]c(Nc3ccccc3)c1C2
Marked response: NO
